Catalogue of molecules with associated melting point

Check out these entries, answers already filled in.
molecule="Nc1cc(C#Cc2cnc3cnc(-c4ccc(C(=O)N5CCOCC5)cc4)cn23)ccn1 [Example 88]" measured="143.5 to 144.2 °C"
molecule="Cc1cnccc1C#Cc1cnc2ccc(-c3ccc(C(=O)N4CCOCC4)cc3)cn12 [Example 95]" measured="99 to 104 °C"
molecule="O=C(c1ccc(-c2ccn3ncc(C#Cc4ccncc4)c3n2)cc1)N1CCNCC1 [Example 115]" measured="120 to 136 °C"

Prompt: Give a short answer stating reported melting point for CN1CCN(C(=O)c2ccc(-c3ccc4ncc(C#Cc5ccnc(N)c5)n4n3)cc2)CC1 [Example 76] .
Completion: 120 to 122 °C

Prompt: Answer with reported melting point of Nc1cc(C#Cc2cnn3ccc(-c4ccc(C(=O)N5CCOCC5)cc4)nc23)ccn1 [Example 117]
Completion: 129.8 to 130.6 °C

Prompt: // Input: CC(=O)Nc1cc(C#Cc2cnc3ccc(-c4ccc(C(=O)N5CCN(C)C(=O)C5)cc4)nn23)ccn1 [Example 84] . Output its melting point only.
Completion: 258.2 to 259.5 °C

Prompt: Quote melting point reported for Cc1cnccc1C#Cc1cnn2ccc(-c3ccc(C(=O)N4CCOCC4)cc3)nc12 [Example 116] please.
Completion: 233 to 236 °C

Prompt: # return recorded melting point for entry CN1CCN(C(=O)c2ccc(-c3ccc4ncc(C#Cc5ccnc6[nH]ccc56)n4n3)cc2)CC1=O [Example 85]
Completion: 207.2 to 208.2 °C

Prompt: Complete the entry with melting point for CC(=O)Nc1cc(C#Cc2cnc3ccc(-c4ccc(C(=O)N5CCN(C)CC5)cc4)nn23)ccn1 [Example 87]
Completion: 216.8 to 217.9 °C

###

- System: eIF4e phosphorylation in Hela cell line
- test summary: eIF4e phosphorylation inhibition in Hela cell line
- Type: cell-based
- conditions used: Homo sapiens, cellular
Structures can show the parent of a compound that is named as a salt.
attribute measured: IC50

Solved cases (4 shown):
compound="Nc1cc(C#Cc2cnn3ccc(-c4ccc(C(=O)N5CCOCC5)cc4F)nc23)ccn1 [Example 123, formic acid salt]" measured="< 5 µM"
compound="O=C(c1ccc(-c2ccc3ncc(C#Cc4ccnc5[nH]ccc45)n3c2)cc1)N1CCOCC1 [Example 099]" measured="< 5 µM"
compound="Cc1ccccc1C(=O)Nc1cc(C#Cc2cnc3ccc(-c4ccc(C(=O)N5CCOCC5)cc4)nn23)ccn1 [Example 063]" measured="< 5 µM"
compound="Cc1ccncc1C#Cc1cnc2ccc(-c3ccc(C(=O)N4CCOCC4)cc3)nn12 [Example 022]" measured="< 5 µM"

Prompt: Tell me its IC50 given CN1CCN(C(=O)c2ccc(-c3ccc4ncc(C#Cc5ccccc5)n4n3)cc2)CC1 [Example 002] as the entry.
Completion: < 5 µM

Prompt: Look up IC50 of O=C(c1ccc(-c2ccc3ncc(C#Cc4ccncc4)n3n2)cc1)N1CCOCC1 [Example 032] and report it.
Completion: < 5 µM

Prompt: Give the value of IC50 reported for the following: Nc1cc(C#Cc2cnc3ccc(-c4ccc(C(=O)N5CCNCC5)cc4)cn23)c2cc[nH]c2n1 [Example 111]
Completion: < 5 µM

Prompt: In one line, give reported IC50 of the entry O=C(c1ccc(-c2ccc3ncc(C#Cc4ccnc5[nH]ccc45)n3n2)cc1)N1CCNCC1 [Example 045] .
Completion: < 5 µM
